All values here come from patent US8173631B2.

pIC50 values for the compounds below.
# target of assay: human calcium-sensing receptor (CaSR) (Homo sapiens, UniProt P41180)
# assay method text: Inhibitory activity on calcium-sensing receptor (CaSR), intracellular calcium increase as indicator (FLIPR, CHO/hCaSR)
# measurement parameters: CHO cells stably expressing human CaSR; inhibition of intracellular Ca increase induced by extracellular CaCl2
pIC50: −log10 of the molar value.

>  <smiles text>
CC[C@@H](OC[C@H](O)CN1CCC[C@H]1Cc1ccc(Cl)c(Cl)c1)c1cccc(OC)c1CCC(=O)O

>  <pIC50>
≥ 5.52

$$$$
>  <smiles text>
C[C@@H](OC[C@H](O)CN1CCC[C@H]1Cc1ccc(Cl)c(Cl)c1)c1cc(F)cc(F)c1CCC(=O)O

>  <pIC50>
≥ 5.51

$$$$
>  <smiles text>
Cc1ccc(C[C@@H]2C[C@@H](F)CN2C[C@@H](O)CO[C@H](C)c2ccccc2CCC(=O)O)cc1F

>  <pIC50>
≥ 5.46

$$$$
>  <smiles text>
Cc1ccc(C[C@@H]2CCCN2C[C@@H](O)CO[C@H](C)c2ccccc2CCCCC(=O)O)cc1F

>  <pIC50>
≥ 5.47

$$$$

---

# target of assay: human calcium-sensing receptor (CaSR) (Homo sapiens)
# Construct: expressed in transfected cells
# Sequence (P41180 20-1078): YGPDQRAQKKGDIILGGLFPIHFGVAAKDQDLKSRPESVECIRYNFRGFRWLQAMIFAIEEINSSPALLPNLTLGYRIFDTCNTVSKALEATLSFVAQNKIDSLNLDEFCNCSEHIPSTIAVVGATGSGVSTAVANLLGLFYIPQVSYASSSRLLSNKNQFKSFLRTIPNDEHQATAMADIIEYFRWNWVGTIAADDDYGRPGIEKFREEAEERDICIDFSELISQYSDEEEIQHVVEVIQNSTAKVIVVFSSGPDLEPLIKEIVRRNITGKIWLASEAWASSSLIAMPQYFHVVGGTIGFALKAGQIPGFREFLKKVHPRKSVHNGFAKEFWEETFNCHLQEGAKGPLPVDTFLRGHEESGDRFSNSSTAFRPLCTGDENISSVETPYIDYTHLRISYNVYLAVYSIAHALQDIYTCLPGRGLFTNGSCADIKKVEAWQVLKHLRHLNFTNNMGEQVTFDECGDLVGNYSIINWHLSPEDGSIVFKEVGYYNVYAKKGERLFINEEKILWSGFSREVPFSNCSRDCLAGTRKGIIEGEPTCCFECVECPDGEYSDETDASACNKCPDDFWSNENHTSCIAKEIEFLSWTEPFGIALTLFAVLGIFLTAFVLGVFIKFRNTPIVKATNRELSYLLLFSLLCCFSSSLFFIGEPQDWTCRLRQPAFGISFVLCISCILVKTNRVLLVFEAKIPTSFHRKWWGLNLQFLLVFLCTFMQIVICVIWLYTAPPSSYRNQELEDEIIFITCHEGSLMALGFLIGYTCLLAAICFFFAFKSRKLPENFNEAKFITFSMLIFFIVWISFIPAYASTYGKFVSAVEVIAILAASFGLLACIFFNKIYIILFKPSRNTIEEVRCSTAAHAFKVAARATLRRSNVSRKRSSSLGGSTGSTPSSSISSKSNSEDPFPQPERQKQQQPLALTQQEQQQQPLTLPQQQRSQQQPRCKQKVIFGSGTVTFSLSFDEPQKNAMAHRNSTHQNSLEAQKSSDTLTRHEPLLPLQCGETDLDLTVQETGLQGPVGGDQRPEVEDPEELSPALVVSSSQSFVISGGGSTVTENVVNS
# assay method text: Inhibitory activity on calcium-sensing receptor (CaSR), intracellular calcium increase as indicator (FLIPR, CHO/hCaSR)
# Assay type: cell-based
# measurement parameters: CHO cells stably expressing human CaSR; inhibition of intracellular Ca increase induced by extracellular CaCl2
# Method: Evaluation of inhibitory activity on calcium-sensing receptor (CaSR) using intracellular calcium increase as an indicator The preparation which is prepared by adding CHO/hCaSR to F12 medium (manufactured by Invitrogen) containing 10% fetal bovine serum to have 2×10^5 cells/mL was applied to a 384-well in an amount of 50 μL/well, and then incubated overnight in a CO2 incubator. […]
pIC50: −log10 of the molar value.

>  <compound>
CCc1cc(C[C@@H]2CCCN2C[C@@H](O)CO[C@H](C)c2cc(F)c(F)cc2CCC(=O)O)ccc1Cl [Example 147]

>  <pIC50>
≥ 5.50

$$$$
>  <compound>
CC[C@@H](OC[C@H](O)CN1CCC[C@H]1Cc1ccc(Cl)c(F)c1)c1cc(F)c(F)cc1CCC(=O)O [Example 145]

>  <pIC50>
≥ 5.51

$$$$
>  <compound>
CCc1cc(C[C@@H]2CCCN2C[C@@H](O)CO[C@H](CC)c2cccc(Cl)c2CCC(=O)O)ccc1Cl [Example 114]

>  <pIC50>
≥ 5.51

$$$$
>  <compound>
Cc1ccc(C[C@@H]2CCCN2C[C@@H](O)CO[C@H](C)c2cccc(F)c2CCCCC(=O)O)cc1F [Example 58]

>  <pIC50>
≥ 5.49

$$$$
>  <compound>
CCC[C@@H](OC[C@H](O)CN1CCC[C@H]1Cc1ccc(C)c(F)c1)c1ccccc1CCC(=O)O [Example 21]

>  <pIC50>
≥ 5.47

$$$$
>  <compound>
Cc1ccc(C[C@@H]2CCCN2C[C@@H](O)CO[C@H](C)c2cccc(C)c2CCCCC(=O)O)cc1F [Example 57]

>  <pIC50>
≥ 5.48

$$$$
>  <compound>
Cc1ccc(C[C@@H]2CCCN2C[C@@H](O)CO[C@H](C)c2ccccc2CCC(=O)O)cc1F [Example 2]

>  <pIC50>
≥ 5.44

$$$$
>  <compound>
CC[C@@H](OC[C@H](O)CN1CCC[C@H]1Cc1ccc(C)c(F)c1)c1cc(F)c(C)cc1CCC(=O)O [Example 69]

>  <pIC50>
≥ 5.49

$$$$
>  <compound>
CCc1cc(C[C@@H]2CCCN2C[C@@H](O)CO[C@H](CC)c2cc(F)c(F)cc2CCC(=O)O)ccc1Cl [Example 121]

>  <pIC50>
≥ 5.52

$$$$
>  <compound>
C[C@@H](OC[C@H](O)CN1CCC[C@H]1Cc1ccc(Cl)c(F)c1)c1cc(F)c(F)cc1CCC(=O)O [Example 149]

>  <pIC50>
≥ 5.49

$$$$
>  <compound>
Cc1ccc(C[C@@H]2CCCN2C[C@@H](O)CO[C@H](C)c2cc(F)c(F)cc2CCC(=O)O)cc1F [Example 26]

>  <pIC50>
≥ 5.48

$$$$
>  <compound>
CC[C@@H](OC[C@H](O)CN1CCC[C@H]1Cc1ccc(Cl)c(F)c1)c1cccc(OC)c1CCC(=O)O [Example 173]

>  <pIC50>
≥ 5.50

$$$$
>  <compound>
CC[C@@H](OC[C@H](O)CN1CCC[C@H]1Cc1ccc(C)c(Cl)c1)c1cc(F)cc(F)c1CCC(=O)O [Example 140]

>  <pIC50>
≥ 5.50

$$$$
>  <compound>
Cc1ccc(C[C@@H]2CCCN2C[C@@H](O)CO[C@H](C)c2cc(F)ccc2CCC(=O)O)cc1Cl [Example 166]

>  <pIC50>
≥ 5.48

$$$$
>  <compound>
COc1cccc([C@@H](C)OC[C@H](O)CN2CCC[C@H]2Cc2ccc(C)c(Cl)c2)c1CCC(=O)O [Example 167]

>  <pIC50>
≥ 5.49

$$$$
>  <compound>
Cc1ccc(C[C@@H]2CCCN2C[C@@H](O)CO[C@H](C)c2cc(F)ccc2CCCCC(=O)O)cc1F [Example 55]

>  <pIC50>
≥ 5.49

$$$$
>  <compound>
C[C@@H](OC[C@H](O)CN1CCC[C@H]1Cc1ccc(Cl)c(Cl)c1)c1cccc(Cl)c1CCC(=O)O [Example 151]

>  <pIC50>
≥ 5.51

$$$$
>  <compound>
Cc1ccc([C@@H](C)OC[C@H](O)CN2CCC[C@H]2Cc2ccc(C)c(Cl)c2)c(CCC(=O)O)c1 [Example 126]

>  <pIC50>
≥ 5.47

$$$$
>  <compound>
CCc1cc(C[C@@H]2CCCN2C[C@@H](O)CO[C@H](C)c2cccc(OC)c2CCC(=O)O)ccc1Cl [Example 165]

>  <pIC50>
≥ 5.50

$$$$
>  <compound>
CC[C@@H](OC[C@H](O)CN1CCC[C@H]1Cc1ccc(C)c(Cl)c1)c1cccc(F)c1CCC(=O)O [Example 138]

>  <pIC50>
≥ 5.49

$$$$
>  <compound>
CCc1cc(C[C@@H]2CCCN2C[C@@H](O)CO[C@H](CC)c2cc(F)c(C)cc2CCC(=O)O)ccc1Cl [Example 119]

>  <pIC50>
≥ 5.51

$$$$
>  <compound>
CC[C@@H](OC[C@H](O)CN1CCC[C@H]1Cc1ccc(C)c(Cl)c1)c1ccc(Cl)cc1CCC(=O)O [Example 129]

>  <pIC50>
≥ 5.50

$$$$
>  <compound>
CC[C@@H](OC[C@H](O)CN1CCC[C@H]1Cc1ccc(Cl)c(F)c1)c1cc(F)cc(F)c1CCC(=O)O [Example 141]

>  <pIC50>
≥ 5.51

$$$$
>  <compound>
Cc1ccc(C[C@@H]2CCCN2C[C@@H](O)CO[C@H](C)c2cc(F)cc(F)c2CCC(=O)O)cc1Cl [Example 132]

>  <pIC50>
≥ 5.49

$$$$
>  <compound>
CCC[C@@H](OC[C@H](O)CN1CCC[C@H]1Cc1ccc(C)c(F)c1)c1cccc(C)c1CCC(=O)O [Example 62]

>  <pIC50>
≥ 5.48

$$$$
>  <compound>
C[C@@H](OC[C@H](O)CN1CCC[C@H]1Cc1ccc(Cl)c(F)c1)c1cc(F)ccc1CCC(=O)O [Example 130]

>  <pIC50>
≥ 5.48

$$$$
